System: Plasmodium falciparum
Assay: Primary screen in NF54 nanoGlo assay, in single point, at 2uM, 72h
Type: functional, Erythrocyte
Conditions: timepoint 72 hour
Among all 150,000 compounds or so, about 540 (0.36%) showed an effect of 50% or more. Shown is part of a subset that was picked to be rich in strong results.
Below, each entry is listed alongside its reported % Inhibition.

{"columns": ["Compound", "Assay Target", "% Inhibition [%]"],
 "data": [
  ["CC(C)N(CC1CCC1)C(=O)NC1CCC(Oc2cnccn2)CC1 (configuration not stated)", "Plasmodium falciparum", 29],
  ["C[C@@H](CNc1nc(-c2ccccc2)nc2ccccc12)N1CCOCC1", "Plasmodium falciparum", -9],
  ["O=C(CCn1c(=O)[nH]c2ccsc2c1=O)NCc1ccccc1", "Plasmodium falciparum", 59],
  ["CC(C)OCC(=O)Nc1ccn(CCCn2ccnc2)n1", "Plasmodium falciparum", -7],
  ["O=C(c1cccc(C#Cc2ccccc2)c1)N1CCN(C(c2ccccc2)c2ccccc2)CC1", "Plasmodium falciparum", -8],
  ["CCN(C)C1(CNC(=O)c2ccc(-c3cc(F)ccc3O)cc2)CCCC1", "Plasmodium falciparum", 55],
  ["COc1ccc(C2CN(Cc3ccccn3)CC2CN(Cc2ccc(F)cc2)C(C)=O)cc1 (configuration not stated)", "Plasmodium falciparum", 15],
  ["COc1ccccc1C(C)(C)c1noc([C@@]2(C)CCNC(=O)C2)n1", "Plasmodium falciparum", -3],
  ["Cc1cc(N2CCC(C)CC2)nc2ccc(NC(=O)c3cccnc3)cc12", "Plasmodium falciparum", 18],
  ["CN1C(=O)[C@@H]2CC[C@H]1CN(C1CCN(c3ncc4ccc(F)cc4n3)CC1)C2", "Plasmodium falciparum", 3],
  ["Cc1ccc(-n2nc3c(=O)n([C@@H](C)C(=O)NCc4ccc(Cl)cc4)nc(C)c3c2C)cc1", "Plasmodium falciparum", 10],
  ["Cc1n[nH]nc1-c1nc(-c2ccncc2)nn1[C@H]1CCS(=O)(=O)C1", "Plasmodium falciparum", -6],
  ["Cc1cc(C(=O)N[C@@H](C)c2nc(-c3cccnc3)cs2)cc(O)n1", "Plasmodium falciparum", 51],
  ["Cc1ccc(-c2cc(C(=O)Nc3ncccc3Cl)c3ccccc3n2)s1", "Plasmodium falciparum", 3],
  ["Cc1ccccc1NC(=O)[C@H]1c2cccc[n+]2CC(=O)N1c1ccc2c(c1)OCO2", "Plasmodium falciparum", -9],
  ["O=C(N/C(=N\\c1ccc(F)cc1)N1CCN(Cc2cccc(F)c2)CC1)c1ccccc1", "Plasmodium falciparum", 2],
  ["O=C(c1cccc(-n2cnnn2)c1)N1CCN(C(c2ccccc2)c2ccccc2)CC1", "Plasmodium falciparum", 10],
  ["c1c[nH]c(-c2nc(C3CCOCC3)n[nH]2)c1", "Plasmodium falciparum", -6],
  ["COC[C@@H]1[C@H](C(=O)Nc2cc(OC)ccc2OC)CCC(=O)N1C", "Plasmodium falciparum", -12],
  ["COc1ccccc1CN1Cc2ccccc2O[C@@H](C)C1=O", "Plasmodium falciparum", -5],
  ["CC(C)C(=O)N1CCc2ccc(OCc3nc(C(=O)N(C)Cc4ccccc4)cs3)cc2[C@@H]1c1ccccc1", "Plasmodium falciparum", 1],
  ["C[C@H](OC(=O)CNC(=O)OC(C)(C)C)C(=O)N1CCCCCC1", "Plasmodium falciparum", -12],
  ["CC(=O)Nc1ccc2nc(N3CCC(C(=O)N4CCC(N5CCCCC5)CC4)CC3)cc(C)c2c1", "Plasmodium falciparum", 10],
  ["CC(C)c1nccn1CC(=O)N(C)[C@@H](C)c1ccc(F)c(F)c1", "Plasmodium falciparum", -1],
  ["CCc1nc2c(c(OC3CCN(C(=O)c4ccn(CC)n4)CC3)n1)CCOCC2", "Plasmodium falciparum", -11],
  ["CC(=O)Nc1ccc2nc(N3CCC(C(=O)NC4CC4)CC3)cc(C)c2c1", "Plasmodium falciparum", 8],
  ["CCN(CC)c1ccc(CNC(=O)[C@H](C)c2c(C)noc2C)cc1F", "Plasmodium falciparum", -12],
  ["O=C(COC[C@H]1CCCCO1)NC(C1CC1)C1CC1", "Plasmodium falciparum", -8],
  ["Cc1cc(CC(=O)N[C@@H](C)c2nc(-c3cccnc3)cs2)no1", "Plasmodium falciparum", -5],
  ["Cc1ccc(C)c(NC(=O)c2c(Oc3ccc(F)cc3)nc(C)c(Cl)c2C)c1", "Plasmodium falciparum", -8],
  ["COc1ccccc1CN1COc2cc3c(cc2C1)OCO3", "Plasmodium falciparum", 56],
  ["O=C(c1cccc(C(=O)N2CCN(C(c3ccccc3)c3ccccc3)CC2)c1)N1CCN(C(c2ccccc2)c2ccccc2)CC1", "Plasmodium falciparum", 54],
  ["COc1ccc(CC(=O)N2CCCS(=O)(=O)C[C@H]2C2CC2)nc1", "Plasmodium falciparum", -1],
  ["O=C(NCCn1c(=O)[nH]c2ccsc2c1=O)c1ccccc1Cl", "Plasmodium falciparum", -10],
  ["COc1ccc(C(=O)Nc2ccc3nc(N4CCC(C)CC4)cc(C)c3c2)cc1OC", "Plasmodium falciparum", 7],
  ["COc1cc(OC)cc(C(=O)Nc2ccc3nc(N4CCC(C)CC4)cc(C)c3c2)c1", "Plasmodium falciparum", 58],
  ["C[C@@H](CNc1cnc2ccccc2n1)N1CCOCC1", "Plasmodium falciparum", 20],
  ["CCN(C)C1(CNC(=O)c2cccc(-c3ncc(F)c(NC)n3)c2)CCCC1", "Plasmodium falciparum", 3],
  ["c1nc(CCNC[C@@H]2CCCN3CCCC[C@H]23)c[nH]1", "Plasmodium falciparum", -15],
  ["COc1cccc(-c2nsc(C(=O)NCc3cccs3)c2N)c1", "Plasmodium falciparum", 18],
  ["CC(C)CNC(=O)CS(=O)(=O)Cc1ccccc1", "Plasmodium falciparum", -6],
  ["CC1(C)NC(=O)N(CC(=O)N2CCC[C@H]2c2ccc3c(c2)OCCCO3)C1=O", "Plasmodium falciparum", -13]
]}

----------
Tested on: Plasmodium falciparum
Assay: Primary screen in NF54 nanoGlo assay, in single point, at 2uM, 72h
Format: functional, Erythrocyte
Conditions: timepoint 72 hour
About 540 (0.36%) of roughly 150,000 compounds showed an effect of 50% or more. The sample as a whole holds a higher share of strong results than the screen did.
Attribute Measured: % Inhibition (%)

{"columns": ["Structure As Smiles", "Unit Info", "Recorded Number"],
 "data": [
  ["COCC(=O)N[C@H]1CO[C@H]2[C@@H]1OC[C@@H]2Nc1nccc(-c2cccc(C#N)c2)n1", "%", 50],
  ["O=C(NC1CC1)c1ccccc1C(=O)c1ccc(F)cc1", "%", -8],
  ["Nc1c2c(nc3c1cnn3-c1cc(F)cc(F)c1)CCCC2=O", "%", -9],
  ["Cc1cccc(-n2c(=O)[nH]c3nc(N4CCCC4)ncc3c2=O)c1C", "%", -4],
  ["COc1ccccc1-n1c(=O)[nH]c2nc(NCc3cccnc3)ncc2c1=O", "%", 1],
  ["N#Cc1cccc(-c2ccnc(N[C@H]3CO[C@H]4[C@@H]3OC[C@@H]4NC(=O)c3ccc(C(F)(F)F)cc3)n2)c1", "%", -7],
  ["O=C(Nc1cnc2ccccc2c1)c1ccccc1C(=O)c1ccc(F)cc1", "%", 93],
  ["C=CC[C@]1(C(=O)O)CCCN(Cc2c(C)nn(CC)c2C)C1", "%", -6],
  ["CC(C)c1nnc2c3ccccc3nc(N3CCN(C(=O)c4ccc(Cl)cc4)[C@@H](C)C3)n12", "%", -1],
  ["Cc1noc(C)c1CN1C(=O)NC2(CCCCC2)C1=O", "%", -2]
]}

----------
Tested on: Plasmodium falciparum
Assay: Primary screen in NF54 nanoGlo assay, in single point, at 2uM, 72h
Type: functional, Erythrocyte
Details: timepoint 72 hour
In all, about 150,000 compounds went through this assay and about 540 (0.36%) showed an effect of 50% or more. This excerpt belongs to a sample that is enriched for strong results.
Below, each entry is listed alongside its reported % Inhibition.

{"columns": ["Compound", "Assay Target", "% Inhibition / %"],
 "data": [
  ["Cc1c(Cl)cccc1NC(=O)c1sccc1S(=O)(=O)N1CCc2ccccc2C1", "Plasmodium falciparum", 1],
  ["CCO[C@H]1CN(C(=O)Cc2nc(C)sc2C)C[C@@H]1O", "Plasmodium falciparum", 0],
  ["O=C(c1cccs1)N(Cc1ccccn1)c1nc2ccccc2s1", "Plasmodium falciparum", 4],
  ["Cc1noc(C)c1S(=O)(=O)NC1(C(=O)Nc2ccsc2)CCCC1", "Plasmodium falciparum", -8],
  ["CNC(=O)c1ccc(NC2CC3CC3C2)nn1 (stereo unspecified)", "Plasmodium falciparum", 6],
  ["Cn1c(COc2ccccc2C(N)=O)nnc1-c1ccc(Cl)cc1", "Plasmodium falciparum", 3],
  ["COCCN(Cc1cc2ccc(Cl)cc2nc1N1CCC[C@H](CO)C1)C(=O)c1sccc1C", "Plasmodium falciparum", 2],
  ["COc1cccc(NC(=O)c2cc(C(=O)Nc3cccc(OC)c3)cc(N3C(=O)c4ccccc4C3=O)c2)c1", "Plasmodium falciparum", 18],
  ["Nc1ccc(-c2ccc(NC3CCCC3)nn2)cn1", "Plasmodium falciparum", -16],
  ["Cc1noc2ncnc(NC[C@](C)(O)c3cccc(F)c3)c12", "Plasmodium falciparum", -7],
  ["CCc1onc(C)c1NCc1cnc(C(C)(C)C)s1", "Plasmodium falciparum", 34]
]}
